Cited source: ChEMBL document CHEMBL4052823

System: Blood
test: Drug uptake in CD1 mouse blood at 5 mg/kg, iv
Format: ADME, organism-based
statedConditions: in vivo
readoutName: Drug uptake

Report Drug uptake for CN[C@H](CC(C)C)C(=O)N[C@H]1C(=O)N[C@@H](CC(N)=O)C(=O)N[C@H]2C(=O)N[C@H]3C(=O)N[C@H](C(=O)N[C@H](C(=O)O)c4cc(O)c(CN[C@H]5C(O)O[C@H](CO)[C@H](O)[C@@H]5O)c(O)c4-c4cc3ccc4O)[C@H](O)c3ccc(c(Cl)c3)Oc3cc2cc(c3O[C@@H]2O[C@H](CO)[C@@H](O)[C@H](O)[C@H]2O[C@H]2C[C@](C)(NCc3ccc(-c4ccc(C(F)(F)F)cc4)cc3)[C@H](O)[C@H](C)O2)Oc2ccc(cc2Cl)[C@H]1O (stereo partly specified) please. > 1 µg/mL
